read-out: E-selectin (Homo sapiens) (UniProt P16581); assay: BSK_SAg_Eselectin: BioMAP Diversity Plus: SAg Assay for Eselectin Biomarker Activity (AID 2283091); settings: primary human HUVEC with PBMC; actives raise or lower the signal
Sequence (P16581 whole entry, looked up): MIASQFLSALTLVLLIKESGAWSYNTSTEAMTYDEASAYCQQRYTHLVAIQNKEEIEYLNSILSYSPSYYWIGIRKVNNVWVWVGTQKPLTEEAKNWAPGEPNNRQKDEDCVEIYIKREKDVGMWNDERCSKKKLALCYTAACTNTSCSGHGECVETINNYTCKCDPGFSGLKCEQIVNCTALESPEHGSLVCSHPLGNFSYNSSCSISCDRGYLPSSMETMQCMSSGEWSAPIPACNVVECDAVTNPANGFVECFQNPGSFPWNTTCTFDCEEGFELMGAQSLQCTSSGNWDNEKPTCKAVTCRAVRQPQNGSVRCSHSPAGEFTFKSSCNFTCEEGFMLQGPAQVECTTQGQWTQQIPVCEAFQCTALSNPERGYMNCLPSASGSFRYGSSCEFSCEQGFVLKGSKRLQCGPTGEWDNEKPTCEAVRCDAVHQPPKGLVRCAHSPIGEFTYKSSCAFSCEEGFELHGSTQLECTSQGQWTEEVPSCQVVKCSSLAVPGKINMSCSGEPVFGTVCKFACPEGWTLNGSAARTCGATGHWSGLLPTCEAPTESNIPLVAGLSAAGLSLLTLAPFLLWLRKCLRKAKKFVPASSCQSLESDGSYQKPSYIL
The source made the active and inactive calls. How the source made its calls: active means hit-call score of the fitted dose curve at least 0.9, where 1 is the maximum; inactive means score below 0.9.

{"COMPOUND": "COP(=S)(OC)Oc1nc(Cl)c(Cl)cc1Cl", "AC50": "32 µM (active)"}
{"COMPOUND": "C#CCOS(=O)OC1CCCCC1Oc1ccc(C(C)(C)C)cc1 (stereo unspecified)", "AC50": "4.02 µM (active)"}
{"COMPOUND": "COc1cnc(OC)n2nc(NS(=O)(=O)c3c(OCC(F)F)cccc3C(F)(F)F)nc12", "AC50": "inactive"}
{"COMPOUND": "CCCC1COC(Cn2cncn2)(c2ccc(Cl)cc2Cl)O1 (stereo unspecified)", "AC50": "inactive"}
{"COMPOUND": "CC1COC(Cn2cncn2)(c2ccc(Oc3ccc(Cl)cc3)cc2Cl)O1 (stereo unspecified)", "AC50": "13.1 µM (active)"}
{"COMPOUND": "O=C(Nc1ccccc1)Nc1ccnc(Cl)c1", "AC50": "14.2 µM (active)"}
{"COMPOUND": "Cc1ccc(-c2c(Cl)nc(C#N)n2S(=O)(=O)N(C)C)cc1", "AC50": "13.5 µM (active)"}
{"COMPOUND": "Fc1ccc(Oc2ccnc3cc(Cl)cc(Cl)c23)cc1", "AC50": "20.5 µM (active)"}
{"COMPOUND": "CN(C)C(=S)SSC(=S)N(C)C", "AC50": "24.8 µM (active)"}
{"COMPOUND": "N#Cc1nn(-c2c(Cl)cc(C(F)(F)F)cc2Cl)c(N)c1S(=O)C(F)(F)F (stereo unspecified)", "AC50": "29.8 µM (active)"}
{"COMPOUND": "Cc1cc(Cl)ccc1OCC(=O)O", "AC50": "inactive"}
{"COMPOUND": "Oc1ccccc1-c1ccccc1", "AC50": "inactive"}
{"COMPOUND": "CCOc1cc(Oc2ccc(C(F)(F)F)cc2Cl)ccc1[N+](=O)[O-]", "AC50": "9.5 µM (active)"}
{"COMPOUND": "Cc1c(F)c(F)c(COC(=O)C2C(/C=C(\\Cl)C(F)(F)F)C2(C)C)c(F)c1F (stereo unspecified)", "AC50": "12.5 µM (active)"}
{"COMPOUND": "CO/C=C(/C(=O)OC)c1ccccc1Oc1cc(Oc2ccccc2C#N)ncn1", "AC50": "17.4 µM (active) [middle of 4 runs]"}
{"COMPOUND": "CC(C)Oc1cc(-n2nc(C(C)(C)C)oc2=O)c(Cl)cc1Cl", "AC50": "30.3 µM (active)"}
{"COMPOUND": "CCOC(=O)CC(SP(=S)(OC)OC)C(=O)OCC (stereo unspecified)", "AC50": "inactive"}
{"COMPOUND": "CCOC(=O)C(Cl)Cc1cc(-n2nc(C)n(C(F)F)c2=O)c(F)cc1Cl (stereo unspecified)", "AC50": "inactive"}
{"COMPOUND": "N#CC(CCc1ccc(Cl)cc1)(Cn1cncn1)c1ccccc1 (stereo unspecified)", "AC50": "inactive"}
{"COMPOUND": "O=C(O)COc1nc(Cl)c(Cl)cc1Cl", "AC50": "inactive"}
{"COMPOUND": "CNC(=O)ON=CC(C)(C)SC", "AC50": "inactive"}
{"COMPOUND": "C=CC1(C)OC(=O)N(c2cc(Cl)cc(Cl)c2)C1=O (stereo unspecified)", "AC50": "inactive"}
{"COMPOUND": "CCCCC(CC)COC(=O)c1ccccc1C(=O)OCC(CC)CCCC (stereo unspecified)", "AC50": "inactive"}
{"COMPOUND": "N#Cc1cc(Br)c(O)c(Br)c1", "AC50": "inactive"}
{"COMPOUND": "C=CCC1=C(C)[C@@H](OC(=O)[C@@H]2[C@@H](C=C(C)C)C2(C)C)CC1=O", "AC50": "27.4 µM (active)"}
{"COMPOUND": "COc1ccc(C(c2ccc(OC)cc2)C(Cl)(Cl)Cl)cc1", "AC50": "14.4 µM (active)"}

Values compiled from PubChem BioAssay (EPA / NIEHS).
